Data provenance is PubChem BioAssay (NCI).

- System: OVCAR-3 ovarian
- testName: NCI-60 one-dose screen, 48 h (100 = growth as untreated, 0 = no growth, -100 = all killed)
- settings: 10 µM unless noted
About 83,000 compounds went through this panel and 20% of them were active in at least one assay; those are over-represented in the sample as a whole.
Measured growth, listed per entry.
The response must be a number in % with no trailing unit.

>>> print(df.to_string())
                                   molecule  measurementlabel  observedmeasurement
0  Clc1ccc2c(Nc3ccc4oc(NCCN5CCCC5)nc4c3)ccnc2c1            growth                 82.7
1  O=C(Nc1ccc(Cl)cc1)Nc1ccc(Nc2nncc3ccccc23)cc1            growth                 17.6
2   Cc1nn(-c2ccccc2)c2c1oc(=O)c1cc(Cl)ccc12            growth                 85.8
3  CSc1nc2c(c(=O)n1C)C(c1ccccc1)C1=C(N2)/C(=C/c2ccccc2)CCC1 (stereo not given)            growth                 52.8

Value of measured growth for the entry O=C(C(=O)N1CCOCC1)c1ccc(OC2OC(CO)C(O)C(O)C2O)cc1 (stereo not given) : 110

The value of growth measured for the molecule O=C(Cc1ccccn1)C(F)(F)C(F)(F)C(F)(F)F turned out to be 112

Entry COc1ccc(-c2csc(NC(=O)c3cc(O)c(O)c(O)c3)n2)cc1 — recorded growth = 72.6

growth measured on COc1ccc2c(c1)C(=O)c1c-2c(OCCCN(C)C)nc2cc(Br)ccc12 = 89.1

Reported growth of C[n+]1ccc(C#N)c2ccccc21 : 4.02

The molecule listed as COc1ccc2nc(NC(=O)c3cc(-c4ccc(F)cc4)n4nc(-c5ccccc5)cc4n3)sc2c1 shows growth equal to 67.9

Just so you know, measured growth for O=C(Cn1ccnc1)NC(c1ccccc1)c1ccccc1 came out at 116

So for O=C1NCC(Nc2ccc(Br)cc2Cl)C(=O)N1 (stereo not given) , the logged growth turned out to be 114

Given item O=C(C(=O)N1CCCCC1)c1ccc(OC2OC(CO)C(O)C(O)C2O)cc1 (stereo not given) , the value recorded as its growth is 107

Lab note: measured growth of COc1ccc(Cn2c(NCCCN(C)C)nc(=O)n(Cc3ccc(F)cc3)c2=O)cc1 was 87

Summary for this molecule, NC(=O)c1ncn([C@@H]2O[C@H](CO)[C@@H](O)[C@H]2O)n1 : growth is 103

growth recorded for this molecule, COc1ccc2[nH]cc(/C=C3/C(=O)Nc4ccc(F)cc43)c2c1 , is 108

Quick note, growth for O=C(CSc1nnc(Nc2ccccc2)s1)NCCc1ccc(F)cc1 landed at 113

====

- Test system: A549/ATCC NSCLC
- testName: NCI-60 one-dose screen, 48 h (100 = growth as untreated, 0 = no growth, -100 = all killed)
- settings: 10 µM unless noted
This is part of a sample that, as a whole, favours compounds with a hit. Of some 83,000 tested, about 20% had one in any assay.
measurementLabel: growth (%)
Unit % implied. Number only.

In [3]: df
Out[3]:
                                   molecule  measurementlabel  observedmeasurement
0  Cc1nn(-c2ccccc2)c2nc(Cl)c(/C=C/C(=O)c3ccccc3)c(-c3ccccc3)c12            growth                  110

Lab note: molecule Cc1nn(-c2ccccc2)c2nc3c(nc12)C(=O)CCC3 tested on A549/ATCC NSCLC; recorded growth was 92.9

The value of growth recorded for Cc1cc(NC(=O)c2ccc(N)cc2)ccc1N=Nc1ccc2c(O)c(N=Nc3ccc(Cl)c(S(=O)(=O)O)c3)c(S(=O)(=O)O)cc2c1 when tested on A549/ATCC NSCLC reads 60.5

The molecule C/C(=N\N1CC(=O)NC1=O)c1ccc([N+](=O)[O-])o1 , tested on A549/ATCC NSCLC, showed growth of 97.3

Form field growth for item Nc1ncc(-c2cnn(C3CCNCC3)c2)cc1-c1nc2cc(Cl)ccc2o1 on A549/ATCC NSCLC: -100

Lab entry: A549/ATCC NSCLC assay, molecule C[n+]1ccc(C#N)c2ccccc21 , growth = 106

// molecule CSc1nc2c(c(=O)n1C)C(c1ccccc1)C1=C(N2)/C(=C/c2ccccc2)CCC1 (stereo not given) , assay A549/ATCC NSCLC, growth value: 86.2

Value sought: growth, system A549/ATCC NSCLC, item CCc1ccc(CCN2C(=O)c3ccccc3C2=O)nc1 . Result: 106

Bench note, A549/ATCC NSCLC: CC(=O)c1ccc2c3c(n(C)c2c1)CCCC3 , growth reads 106

With A549/ATCC NSCLC as the test system, COc1cc(C2NC(c3ccc(Cl)cc3)C(C)C(=NC(=O)c3cnccn3)C2C)cc(OC)c1OC (stereo not given) showed growth of 98.8

====

Below: a set of entries, each annotated with reported growth.
- Tested on: UACC-257 melanoma
- testName: NCI-60 one-dose screen, 48 h (100 = growth as untreated, 0 = no growth, -100 = all killed)
- settings: 10 µM unless noted
Compounds without any hit were thinned out: in the full panel of roughly 83,000, 20% have a hit.
Just the number please, in %, no unit attached.

The cases that follow already have their growth on record.
>>> df
                                   molecule  unitofmeasurement  observedmeasurement
0  C/C(=C\CCc1ccoc1)CC/C=C(\C)CCCN1CCC(CO)CC1                  %                   49
1            CC(c1cc(Cl)ccc1O)c1cc(Cl)ccc1O                  %                   33

Lookup result for CCC1(c2ccccc2)Oc2ccccc2-n2c(C#N)c3ccccc3c2C1=O (stereo unspecified) ; measured growth: 90.5

Field growth (entry C=Cc1nn2c(CCC(=O)c3nc4ccccc4[nH]3)nnc2s1 ) reads 110

====

- Test system: NCI-H322M lung
- testName: NCI-60 one-dose screen, 48 h
- settings: 10 µM unless noted
About 83,000 compounds went through this panel and 20% of them were active in at least one assay; those are over-represented in the sample as a whole. Active and inactive are the calls of the source. The calls were made as follows: active = growth percent below 10; inactive = the rest.
Assign a class; possible classes are 1 (yes) for active, 0 (no) for inactive

molecule	classAssignment
O=[N+]([O-])c1ccc(N/N=C\c2ccccc2[N+](=O)[O-])nc1	0 (no)
Cc1cc2c(cc1C)Nc1sc(NC(=O)CN3CCN(C)CC3)nc1C(=O)N2	0 (no)
COC(=O)[C@]12CC[C@@H](C)[C@H](C)[C@@H]1C1=CC[C@@H]3[C@@]4(C)C[C@@H](OC(=O)c5ccco5)[C@H](O)[C@@](C)(CO)[C@@H]4[C@H](O)C[C@@]3(C)[C@]1(C)CC2	1 (yes)
COc1cc(-c2cc(C(=O)Nc3nc4ccccc4s3)nc3cc(-c4ccccc4)nn23)cc(OC)c1OC	0 (no)
Cc1nn(-c2ccc(Cl)cc2)c2nc3c(nc12)c(=O)oc1ccccc13	0 (no)
[O-]/[N+](=C\C=C\c1ccccc1)c1ccccc1	0 (no)

Q: Which outcome was assigned to O=C(NCCc1ccccc1)C1CCC(=O)N1Cc1ccc(Br)cc1 (centres undefined) in this test?
A: 0 (no)

Q: Would you mind telling me which call this test gave O=C(OCCBr)c1ccc(Cl)c([N+](=O)[O-])c1 ?
A: 0 (no)

Q: What is the recorded call for this molecule in the test? O=C(Nc1nc2ccccc2s1)c1cc(-c2ccc(F)cc2)n2nc(-c3ccccc3)cc2n1
A: 0 (no)

Q: So what was the verdict on COc1ccc2[nH]c(-c3ccccc3)cc2c1 in this test?
A: 0 (no)

Q: Would you mind telling me which call this test gave COc1cc(/C=C/C(=O)c2c(-c3ccc(Cl)cc3)nc3sc(C)nn23)cc(OC)c1OC ?
A: 0 (no)

Q: Give the logged outcome of this assay for the following molecule: CCOC(=O)c1c(C)c(C(=O)OCC)n(C)c1C
A: 0 (no)

Q: Please indicate how the test categorized COC(=O)CCC1=C(CC(=O)OC)C(C)=N/C1=C\c1[nH]c(-c2ccc[nH]2)cc1OC .
A: 0 (no)

Q: Check the results log: what was the call for COc1ccc(-c2cn(-c3ccccc3)c(-c3ccccc3)n2)cc1OC ?
A: 0 (no)

Q: Outcome? O=C(Nc1ccc(Cl)cc1Cl)Nc1ccc(-c2cccnc2)cc1N1CCC(CO)CC1
A: 0 (no)

Q: Could you kindly confirm the outcome this assay logged for CO[C@H]1CC(O[C@@H]2/C(C)=C/C[C@@H]3C[C@@H](C[C@]4(CC[C@H](C)[C@@H](C5CCCCC5)O4)O3)OC(=O)[C@@H]3C=C(C)/C(=N/O)[C@H]4OC/C(=C\C=C\[C@@H]2C)[C@]43O)O[C@@H](C)C1O (some centres undefined) ?
A: 1 (yes)

Q: I would be grateful if you could indicate the recorded call for COC(=O)c1ccc2c(c1)nc(-c1ccc(O)c(OC)c1)n2-c1cc(C(C)(C)C)[nH]n1 .
A: 0 (no)

Q: Any idea what this test logged for OC(c1cc(C(F)(F)F)nc2c(C(F)(F)F)cccc12)C1CCCCN1 (centres undefined) ?
A: 0 (no)

Q: Which outcome was assigned to COc1ccc(-c2cnnn2-c2cc(OC)c3c(c2)OCO3)cc1 in this test?
A: 0 (no)

Q: Recorded test call requested for COC(=O)[C@]1(CCSC)N[C@H](c2cn(-c3ccccc3)nc2C)[C@@H]2C(=O)N(c3ccccc3)C(=O)[C@@H]21
A: 0 (no)

Q: Record lookup: outcome of this test for COc1ccc(Cn2c(NCCCN(C)C)nc(=O)n(Cc3ccc(F)cc3)c2=O)cc1 ?
A: 0 (no)

Q: Lab log entry: O=C(Nc1nc(-c2ccc(Cl)cc2)cs1)c1cc(O)c(O)c(O)c1 — outcome as called in the assay?
A: 0 (no)

Q: What outcome does the record of this test show for CC12CCC3C(CCC4CC(=O)/C(=C\O)CC43C)C1CCC(=O)O2 (centres undefined) ?
A: 0 (no)

Q: Could you kindly confirm the outcome this assay logged for CC(C)c1ccc(C(=O)Nc2sc3c(CN(C)C)c(O)ccc3c2C(N)=O)cc1 ?
A: 0 (no)
